Overview of recorded pKd for various binders
Target: RAD51 WT (Homo sapiens, UniProt Q06609 1-339)
Sequence (Q06609 whole entry): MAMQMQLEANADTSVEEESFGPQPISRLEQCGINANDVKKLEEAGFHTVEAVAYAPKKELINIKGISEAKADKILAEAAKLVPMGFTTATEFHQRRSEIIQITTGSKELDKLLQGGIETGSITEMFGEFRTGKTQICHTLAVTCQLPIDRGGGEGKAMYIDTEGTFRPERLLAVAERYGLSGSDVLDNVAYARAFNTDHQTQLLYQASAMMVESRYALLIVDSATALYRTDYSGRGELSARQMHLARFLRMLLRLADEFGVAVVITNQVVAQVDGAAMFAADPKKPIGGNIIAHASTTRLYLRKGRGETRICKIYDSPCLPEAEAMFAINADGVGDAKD
Assay: fluorescence quenching
As a rule, pKd stands for the negative log10 of the concentration, concentration in M.

Qu. Fill in: pKd of AAAAAAAAAAAAAAAAAAAAAAAAA (ssDNA) [oligo 9 ssDNA (AF546 poly-dA)] is ___
Ans. 5.72

With those in mind, consider the next binder.
Qu. Which pKd reading was recorded for the binder oligo 9/10 dsDNA (AF546) (dsDNA) DNA 1: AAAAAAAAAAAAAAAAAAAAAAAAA DNA 2: TTTTTTTTTTTTTTTTTTTTTTTTT ?
Ans. 6.10
